- Target Under Test: UniProt Q9R1U7
- Sequence (Q9R1U7 whole entry): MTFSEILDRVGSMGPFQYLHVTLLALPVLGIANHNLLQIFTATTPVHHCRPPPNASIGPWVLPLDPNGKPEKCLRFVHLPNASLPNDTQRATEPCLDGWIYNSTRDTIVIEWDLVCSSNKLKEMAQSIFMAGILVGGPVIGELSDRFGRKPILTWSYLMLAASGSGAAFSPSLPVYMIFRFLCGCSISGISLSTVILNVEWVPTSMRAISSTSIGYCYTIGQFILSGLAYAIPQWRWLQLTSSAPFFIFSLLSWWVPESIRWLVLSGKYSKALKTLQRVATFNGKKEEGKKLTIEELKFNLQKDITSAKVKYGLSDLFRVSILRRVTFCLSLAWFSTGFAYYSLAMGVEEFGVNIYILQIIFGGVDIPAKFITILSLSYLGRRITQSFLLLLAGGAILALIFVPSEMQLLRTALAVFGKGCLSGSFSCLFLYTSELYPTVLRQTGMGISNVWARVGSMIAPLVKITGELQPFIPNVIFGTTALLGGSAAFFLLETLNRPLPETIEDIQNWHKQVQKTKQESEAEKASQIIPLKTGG
- Assay Procedure: TP_TRANSPORTER: inhibition of Estrone sulfate uptake in OAT3-expressing S2 cells
Readout: pKi
By convention, pKi is the negative base-10 log of a molar concentration.

Field: example entries. Status: answers known.
Cc1nnc(SCC2=C(C(=O)O)N3C(=O)[C@@H](NC(=O)Cn4cnnn4)[C@H]3SC2)s1 : 3.11
CCN1CCN(C(=O)N[C@@H](C(=O)N[C@@H]2C(=O)N3C(C(=O)O)=C(CSc4nnnn4C)CS[C@H]23)c2ccc(O)cc2)C(=O)C1=O : 3.17
CC(=O)OCC1=C(C(=O)O)N2C(=O)[C@@H](NC(=O)Cc3cccs3)[C@H]2SC1 : 4.32

Consider the additional molecule presented here.
Any idea what its pKi is? The molecule is O=C(Cc1cccs1)N[C@@H]1C(=O)N2C(C(=O)[O-])=C(C[n+]3ccccc3)CS[C@H]12
2.94

---

- Target Under Test: Organic anion transporter 3 (Rattus norvegicus, UniProt Q9R1U7)
- Assay Procedure: TP_TRANSPORTER: inhibition of Estrone sulfate uptake in OAT3-expressing S2 cells
Readout: IC50 (µM)
Give the value, in units of µM, as a plain number.

Consider the worked cases shown below.
CO/N=C(\C(=O)N[C@@H]1C(=O)N2C(C(=O)O)=C(COC(C)=O)CS[C@H]12)c1csc(N)n1 : 800
Cn1nnnc1SCC1=C(C(=O)O)N2C(=O)[C@@H](NC(=O)[C@H](O)c3ccccc3)[C@H]2SC1 : 90
CC1=C(C(=O)O)N2C(=O)[C@@H](NC(=O)[C@H](N)c3ccccc3)[C@H]2SC1 [CEPHALEXIN ANHYDROUS] : 630

# input molecule: CC1=C(C(=O)O)N2C(=O)[C@@H](NC(=O)[C@H](N)c3ccc(O)cc3)[C@H]2SC1 ; wanted: its IC50
1780
